# System: MCF7
# Assay Method Text: Cytotoxicity against human MCF7 cells after 48 hrs by MTT assay
# Assay type: functional, cell-based
# Setup Conditions: MCF7, 48 h
# IC50 values compiled below

# annotated cases, reported IC50 shown
>  <Smiles Str>
COC(=O)c1c(O)cc(O)c(C/C=C(\C)CC/C=C(\C)CCC=C(C)C)c1C

>  <IC50>
> 40 µM

$$$$
>  <Smiles Str>
CC(C)=CCC/C(C)=C/CC[C@]1(C)C=Cc2c(O)cc(C)cc2O1

>  <IC50>
23 µM

$$$$

Moving on to another compound below.
// Input: CC(C)=CCC/C(C)=C/CC/C(C)=C/CC1=C(O)C(=O)C(C)=C(c2c(O)cc(O)c(C/C=C(\C)CC/C=C(\C)CCC=C(C)C)c2C)C1=O . Output its IC50 only. > 40 µM

Data origin: ChEMBL document CHEMBL2331437
